Each entry below carries its reported IC50.
Tested on: SW480
Assay: Cytotoxicity against human SW480 cells assessed as reduction in cell viability measured after 48 hrs by MTS assay
Type: functional, cell-based
Settings: SW480, 48 h

Solved entries (count: 4):
* CC1(C)OC(=O)C=C[C@]2(C)[C@H]3[C@H](O)C[C@@]4(C)[C@H](c5ccoc5)C[C@H]5O[C@]54[C@]3(C)C(=O)C[C@@H]12 | > 10000 nM
* CO[C@]12C=C[C@]3(C)OC(=O)[C@H](O)[C@]3(O)[C@@]1(C)[C@H]1[C@@H](C[C@@]3(C)[C@H](c4ccoc4)C[C@H]4O[C@]43[C@]1(C)O)O2 | > 10000 nM
* CC(=O)O[C@@H]1C[C@]2(C)[C@@H](C(=O)C[C@H]2c2ccoc2)[C@]2(C)[C@H](O)C[C@H]3C(C)(C)OC(=O)C=C[C@]3(C)[C@@H]12 | > 10000 nM
* C[C@]12[C@H](CC(=O)[C@]3(C)OC(=O)[C@H](O)[C@]13O)O[C@@H]1C[C@@]3(C)[C@H](c4ccoc4)C[C@H]4O[C@]43[C@](C)(O)[C@H]12 | 2300 nM

Now for a further molecule.
Lookup: Provide IC50 value for the following molecule: C[C@]12[C@H](CC(=O)[C@]3(C)OC(=O)[C@H](O)[C@]13O)O[C@H]1[C@H]2[C@@](C)(O)[C@@]23O[C@@H]2C[C@@H](c2ccoc2)[C@]3(C)[C@H]1O
Found: 2500 nM

----------
Experiment: Cytotoxicity against mouse RAW264.7 cells assessed as cell viability measured after 48 hrs by MTS assay relative to control
Assay type: cell-based
Details: read-out: Activity
PARAMETER: viability at 48 h

Lookup: State, in one line, measured viability at 48 h of CC1(C)OC(=O)C=C[C@]2(C)[C@H]3CC[C@@]4(C)[C@H](C5=CC(=O)NC5=O)C[C@H]5O[C@]54[C@]3(C)C(=O)C[C@@H]12
Found: > 100%

----------
Tested on: SW480
Assay: Cytotoxicity against human SW480 cells assessed as reduction in cell viability measured after 48 hrs by MTS assay
Format: functional, cell-based
Conditions: SW480, 48 h
Entries and their pIC50 values follow.
Remember, pIC50 is on a log scale: it is -log10 of the molar concentration.

Answered examples (2):
* C[C@]12[C@H]3[C@@H](C[C@@]4(C)[C@H](c5ccoc5)C[C@H]5O[C@]54[C@]3(C)O)O[C@@]1(O)C=C[C@]1(C)OC(=O)[C@H](O)[C@]21O | 5.82
* CC(=O)O[C@H]1[C@H]2O[C@H]3C[C@@H](O)[C@]4(C)OC(=O)[C@H](O)[C@]4(O)[C@@]3(C)[C@@H]2[C@@](C)(O)[C@@]23O[C@@H]2C[C@@H](c2ccoc2)[C@]13C | 5.40

Let us examine a further case.
Lookup: Under SW480: report pIC50 of CC(=O)O[C@@H]1C[C@@H]2O[C@@H]3C[C@@]4(C)[C@H](c5ccoc5)C[C@H]5O[C@]54[C@](C)(O)[C@H]3[C@]2(C)[C@@]2(O)[C@@H](O)C(=O)O[C@@]12C .
Found: 5.43

----------
Tested on: SW480
Experiment: Cytotoxicity against human SW480 cells assessed as reduction in cell viability measured after 48 hrs by MTS assay
Type: functional, cell-based
Conditions: SW480, 48 h
pIC50: −log10 of the molar value.
PARAMETER: pIC50

Some compounds with known pIC50 results, for comparison:
* CO[C@@H]1C=C([C@@H]2C[C@H]3O[C@@]34[C@@]2(C)C[C@H]2O[C@H]3C[C@H](O)[C@]5(C)OC(=O)[C@H](O)[C@]5(O)[C@@]3(C)[C@@H]2[C@@]4(C)O)C(=O)O1 | < 5.00
* CC1(C)OC(=O)C=C[C@]2(C)[C@H]3CC[C@]4(C)[C@@H](C(=O)C[C@H]4c4ccoc4)[C@]3(C)[C@H](O)C[C@@H]12 | < 5.00
* CC1(C)OC(=O)C=C[C@]2(C)[C@H]3C[C@H](O)[C@@]4(C)[C@H](c5ccoc5)C[C@H]5O[C@]54[C@]3(C)OC(=O)C[C@@H]12 | < 5.00
* CC1(C)OC(=O)C=C[C@]2(C)[C@H]3CC[C@@]4(C)[C@H](C5=CC(=O)NC5=O)C[C@H]5O[C@]54[C@]3(C)C(=O)C[C@@H]12 | < 5.00

The record that follows has no pIC50 shown yet.
Lookup: Identify pIC50 associated with the compound CC(=O)O[C@H]1[C@@H](OC(C)=O)[C@]2(C)[C@H]([C@H](O)C[C@@]3(C)[C@H](c4ccoc4)C[C@H]4O[C@@]423)[C@@]2(C)C=CC(=O)OC(C)(C)[C@H]12
Found: < 5.00

----------
System: SW480
Experiment: Cytotoxicity against human SW480 cells assessed as reduction in cell viability measured after 48 hrs by MTS assay
Type: functional, cell-based
Settings: SW480, 48 h
PARAMETER: pIC50
The value called pIC50 is obtained by taking minus log10 of the concentration in mol/L.

• C[C@]12[C@H](C[C@@H](O)[C@]3(C)OC(=O)[C@H](O)[C@]13O)O[C@@H]1C[C@@]3(C)[C@H](c4ccoc4)C[C@H]4O[C@]43[C@](C)(O)[C@H]12 = 6.05

With those in mind, consider the next compound.
Lookup: State its pIC50: CC(=O)O[C@H]1C(=O)O[C@@]2(C)[C@H](OC(C)=O)C[C@@H]3O[C@@H]4C[C@@]5(C)[C@H](c6ccoc6)C[C@H]6O[C@]65[C@](C)(O)[C@H]4[C@]3(C)[C@@]12O
Found: 5.64

----------
Tested on: SW480
Assay: Cytotoxicity against human SW480 cells assessed as reduction in cell viability measured after 48 hrs by MTS assay
Type: functional, cell-based
Conditions: SW480, 48 h
pIC50: −log10 of the molar value.
Measured pIC50 by item

Previously resolved entries follow.
• CO[C@@H]1C=C([C@@H]2C[C@H]3O[C@@]34[C@@]2(C)CC[C@@H]2[C@@]3(C)C=CC(=O)OC(C)(C)[C@@H]3CC(=O)O[C@]24C)C(=O)O1 = < 5.00
• CC1(C)OC(=O)C=C[C@]2(C)[C@H]3CC[C@@]4(C)[C@H](C5=CCNC5=O)C[C@H]5O[C@]54[C@]3(C)OC(=O)C[C@@H]12 = < 5.00

Now consider the entry below.
Lookup: Give pIC50 only, for C[C@]12[C@H]3[C@@H](C[C@@]4(C)[C@H](C5=CCNC5=O)C[C@H]5O[C@]54[C@]3(C)O)O[C@@]1(O)C=C[C@]1(C)OC(=O)[C@H](O)[C@]21O , using SW480 data.
Found: < 5.00

----------
Here the recorded IC50 is given for each entry.
System: HL-60
Assay: Cytotoxicity against human HL60 cells assessed as reduction in cell viability measured after 48 hrs by MTS assay
Type: functional, cell-based
Settings: HL-60, 48 h

Example entries and their recorded answers appear below.
- C[C@]12[C@H](CC(=O)[C@]3(C)OC(=O)[C@H](O)[C@]13O)O[C@@H]1C[C@@]3(C)[C@H](c4ccoc4)C[C@H]4O[C@]43[C@](C)(O)[C@H]12: 0.8 µM
- C[C@]12[C@H](c3ccoc3)C[C@H]3O[C@]31[C@](C)(O)[C@@H]1[C@H](O[C@@]3(O)C=C[C@]4(C)OC(=O)[C@H](O)[C@]4(O)[C@@]13C)[C@@H]2O: > 10 µM

Attention now turns to another entry.
Lookup: Item C[C@]12[C@H](C[C@H](O)[C@]3(C)OC(=O)[C@H](O)[C@]13O)O[C@H]1[C@H]2[C@@](C)(O)[C@@]23O[C@@H]2C[C@@H](c2ccoc2)[C@]3(C)[C@H]1O : provide IC50
Found: > 10 µM

----------
Tested on: HL-60
Assay: Cytotoxicity against human HL60 cells assessed as reduction in cell viability measured after 48 hrs by MTS assay
Format: functional, cell-based
Settings: HL-60, 48 h
pIC50: −log10 of the molar value.
Form field: pIC50 (one value per entry).

• C[C@]12[C@H](CC(=O)[C@]3(C)OC(=O)[C@H](O)[C@]13O)O[C@H]1[C@H]2[C@@](C)(O)[C@@]23O[C@@H]2C[C@@H](c2ccoc2)[C@]3(C)[C@H]1O = 6.05
• CC1(C)OC(=O)C=C[C@]2(C)[C@H]3CC[C@@]4(C)[C@H](C5=CCNC5=O)C[C@H]5O[C@]54[C@]3(C)OC(=O)C[C@@H]12 = < 5.00
• C[C@]12[C@H](C[C@@H](O)[C@]3(C)OC(=O)[C@H](O)[C@]13O)O[C@@H]1C[C@@]3(C)[C@H](c4ccoc4)C[C@H]4O[C@]43[C@](C)(O)[C@H]12 = 6.22
• CC1(C)OC(=O)C=C[C@]2(C)[C@H]3CC[C@@]4(C)[C@H](C5=CC(=O)NC5=O)C[C@H]5O[C@]54[C@]3(C)C(=O)C[C@@H]12 = < 5.00
• C[C@]12[C@H]3[C@@H](C[C@@]4(C)[C@H](C5=CCNC5=O)C[C@H]5O[C@]54[C@]3(C)O)O[C@@]1(O)C=C[C@]1(C)OC(=O)[C@H](O)[C@]21O = < 5.00

Lookup: Give pIC50 for the following compound: CC(=O)O[C@H]1[C@@H](OC(C)=O)[C@]2(C)[C@H]([C@H](O)C[C@@]3(C)[C@H](c4ccoc4)C[C@H]4O[C@@]423)[C@@]2(C)C=CC(=O)OC(C)(C)[C@H]12
Found: < 5.00

Lookup: Find the measured pIC50 of CO[C@@H]1C=C([C@@H]2C[C@H]3O[C@@]34[C@@]2(C)C[C@H]2O[C@@]3(O)C=C[C@]5(C)OC(=O)[C@H](O)[C@]5(O)[C@@]3(C)[C@@H]2[C@@]4(C)O)C(=O)O1 and report it.
Found: < 5.00

Lookup: Find the measured pIC50 of CC1(C)OC(=O)C=C[C@]2(C)[C@H]3C[C@H](O)[C@@]4(C)[C@H](c5ccoc5)C[C@H]5O[C@]54[C@]3(C)OC(=O)C[C@@H]12 and report it.
Found: < 5.00

Lookup: Name the recorded pIC50 of the compound listed here: CO[C@@H]1C=C([C@@H]2C[C@H]3O[C@@]34[C@@]2(C)CC[C@@H]2[C@@]3(C)C=CC(=O)OC(C)(C)[C@@H]3CC(=O)O[C@]24C)C(=O)O1
Found: < 5.00
